assay: Tacrolimus concentrations and interdose AUC in ISBA requests of renal transplant patients; settings: human, in vivo, oral, Median; OAD; Train (n = 1184); read-out: Concentration C1 at 1 h
Observable: concentration at 1 h
Record the result as a number with its unit.

Inquiry: Give the reported concentration at 1 h for this compound. `C=CC[C@@H]1/C=C(\C)C[C@H](C)C[C@H](OC)[C@H]2O[C@@](O)(C(=O)C(=O)N3CCCC[C@H]3C(=O)O[C@H](/C(C)=C/[C@@H]3CC[C@@H](O)[C@H](OC)C3)[C@H](C)[C@@H](O)CC1=O)[C@H](C)C[C@@H]2OC`
Reply text: 12.6 ng/mL

====

assay: Tacrolimus concentrations and interdose AUC in ISBA requests of renal transplant patients; details: human, in vivo, oral, Minimum; OAD; Train (n = 1184); read-out: Concentration C1 at 1 h
Observable: concentration at 1 h (ng/mL)
Numeric answer only, unit ng/mL assumed.

Inquiry: Annotate the compound C=CC[C@@H]1/C=C(\C)C[C@H](C)C[C@H](OC)[C@H]2O[C@@](O)(C(=O)C(=O)N3CCCC[C@H]3C(=O)O[C@H](/C(C)=C/[C@@H]3CC[C@@H](O)[C@H](OC)C3)[C@H](C)[C@@H](O)CC1=O)[C@H](C)C[C@@H]2OC [tacrolimus] with its measured concentration at 1 h.
Reply text: 9

====

Assay: Tacrolimus concentrations and interdose AUC in ISBA requests of renal transplant patients
Details: human, in vivo, oral, Maxmum; OAD; Test (n = 394); read-out: Concentration C1 at 1 h
From the text: Tacrolimus requests from ISBA website were extracted and cleaned using the tidyverse framework. Patient with a renal transplantation and tacrolimus concentrations measured using HPLC methods were selected. […]
Observable: concentration at 1 h (ng/mL)
The reply should contain only the number, in ng/mL.

Inquiry: Please list concentration at 1 h recorded for the compound C=CC[C@@H]1/C=C(\C)C[C@H](C)C[C@H](OC)[C@H]2O[C@@](O)(C(=O)C(=O)N3CCCC[C@H]3C(=O)O[C@H](/C(C)=C/[C@@H]3CC[C@@H](O)[C@H](OC)C3)[C@H](C)[C@@H](O)CC1=O)[C@H](C)C[C@@H]2OC [tacrolimus]
Reply text: 17.1

====

test: Tacrolimus concentrations and interdose AUC in ISBA requests of renal transplant patients; details: human, in vivo, oral, Minimum; TAD; Test (n = 1236); read-out: Concentration C1 at 1 h
Observable: concentration at 1 h (ng/mL)
Give just the number in ng/mL; leave the unit off.

Inquiry: Look up and report measured concentration at 1 h for this entry: `C=CC[C@@H]1/C=C(\C)C[C@H](C)C[C@H](OC)[C@H]2O[C@@](O)(C(=O)C(=O)N3CCCC[C@H]3C(=O)O[C@H](/C(C)=C/[C@@H]3CC[C@@H](O)[C@H](OC)C3)[C@H](C)[C@@H](O)CC1=O)[C@H](C)C[C@@H]2OC`
Reply text: 10.5

====

assay: Tacrolimus concentrations and interdose AUC in ISBA requests of renal transplant patients; details: human, in vivo, oral, Minimum; TAD; Train (n = 3708); read-out: Concentration C3 at 3 h
Observable: concentration at 3 h (ng/mL)
Lab book: enter the figure in ng/mL, no units written.

Inquiry: Query concentration at 3 h for `C=CC[C@@H]1/C=C(\C)C[C@H](C)C[C@H](OC)[C@H]2O[C@@](O)(C(=O)C(=O)N3CCCC[C@H]3C(=O)O[C@H](/C(C)=C/[C@@H]3CC[C@@H](O)[C@H](OC)C3)[C@H](C)[C@@H](O)CC1=O)[C@H](C)C[C@@H]2OC`
Reply text: 9.3

====

test: Tacrolimus concentrations and interdose AUC in ISBA requests of renal transplant patients; settings: human, in vivo, oral, Minimum; TAD; Test (n = 1236); read-out: Concentration C3 at 3 h
Observable: concentration at 3 h
Remember to quote the unit after the number.

Inquiry: Give the reported value of concentration at 3 h for this record: C=CC[C@@H]1/C=C(\C)C[C@H](C)C[C@H](OC)[C@H]2O[C@@](O)(C(=O)C(=O)N3CCCC[C@H]3C(=O)O[C@H](/C(C)=C/[C@@H]3CC[C@@H](O)[C@H](OC)C3)[C@H](C)[C@@H](O)CC1=O)[C@H](C)C[C@@H]2OC [tacrolimus]
Reply text: 9.6 ng/mL

====

assay: Tacrolimus concentrations and interdose AUC in ISBA requests of renal transplant patients; conditions: human, in vivo, oral, Maxmum; TAD; Train (n = 3708); read-out: Concentration C1 at 1 h
Observable: concentration at 1 h (ng/mL)
Entry rule: numbers only, all in ng/mL.

Inquiry: Please report the measured concentration at 1 h for `C=CC[C@@H]1/C=C(\C)C[C@H](C)C[C@H](OC)[C@H]2O[C@@](O)(C(=O)C(=O)N3CCCC[C@H]3C(=O)O[C@H](/C(C)=C/[C@@H]3CC[C@@H](O)[C@H](OC)C3)[C@H](C)[C@@H](O)CC1=O)[C@H](C)C[C@@H]2OC`
Reply text: 21.4

====

Test: Tacrolimus concentrations and interdose AUC in ISBA requests of renal transplant patients
Conditions: human, in vivo, oral, Minimum; OAD; Train (n = 1184); read-out: Concentration C3 at 3 h
Description: Tacrolimus requests from ISBA website were extracted and cleaned using the tidyverse framework. Patient with a renal transplantation and tacrolimus concentrations measured using HPLC methods were selected. […]
Observable: concentration at 3 h (ng/mL)
The answer is to be given in ng/mL; state only the numeric part.

Inquiry: Retrieve concentration at 3 h measured for C=CC[C@@H]1/C=C(\C)C[C@H](C)C[C@H](OC)[C@H]2O[C@@](O)(C(=O)C(=O)N3CCCC[C@H]3C(=O)O[C@H](/C(C)=C/[C@@H]3CC[C@@H](O)[C@H](OC)C3)[C@H](C)[C@@H](O)CC1=O)[C@H](C)C[C@@H]2OC [tacrolimus] and print it.
Reply text: 9.8

====

test: Tacrolimus concentrations and interdose AUC in ISBA requests of renal transplant patients; details: human, in vivo, oral, Minimum; OAD; Test (n = 394); read-out: Concentration C3 at 3 h
Observable: concentration at 3 h (ng/mL)
Write the answer as a number in ng/mL, unit excluded.

Inquiry: Give a short answer stating reported concentration at 3 h for `C=CC[C@@H]1/C=C(\C)C[C@H](C)C[C@H](OC)[C@H]2O[C@@](O)(C(=O)C(=O)N3CCCC[C@H]3C(=O)O[C@H](/C(C)=C/[C@@H]3CC[C@@H](O)[C@H](OC)C3)[C@H](C)[C@@H](O)CC1=O)[C@H](C)C[C@@H]2OC` .
Reply text: 9.51

====

test: Tacrolimus concentrations and interdose AUC in ISBA requests of renal transplant patients; details: human, in vivo, oral, Median; TAD; Test (n = 1236); read-out: Concentration C3 at 3 h
Observable: concentration at 3 h (ng/mL)
Value expressed in ng/mL; do not type the unit.

Inquiry: Report concentration at 3 h, nothing else, for this molecule: C=CC[C@@H]1/C=C(\C)C[C@H](C)C[C@H](OC)[C@H]2O[C@@](O)(C(=O)C(=O)N3CCCC[C@H]3C(=O)O[C@H](/C(C)=C/[C@@H]3CC[C@@H](O)[C@H](OC)C3)[C@H](C)[C@@H](O)CC1=O)[C@H](C)C[C@@H]2OC [tacrolimus]
Reply text: 12.8

====

experiment: Tacrolimus concentrations and interdose AUC in ISBA requests of renal transplant patients; conditions: human, in vivo, oral, Median; TAD; Train (n = 3708); read-out: Through level C0
Observable: C0 (µg/mL)
Record the value in µg/mL, omitting the unit from your answer.

Inquiry: Provide only the value of recorded C0 for `C=CC[C@@H]1/C=C(\C)C[C@H](C)C[C@H](OC)[C@H]2O[C@@](O)(C(=O)C(=O)N3CCCC[C@H]3C(=O)O[C@H](/C(C)=C/[C@@H]3CC[C@@H](O)[C@H](OC)C3)[C@H](C)[C@@H](O)CC1=O)[C@H](C)C[C@@H]2OC`
Reply text: 0.0147

====

Assay: Tacrolimus concentrations and interdose AUC in ISBA requests of renal transplant patients
Conditions: human, in vivo, oral, Median; OAD; Test (n = 394); read-out: Concentration C1 at 1 h
Excerpt: Tacrolimus requests from ISBA website were extracted and cleaned using the tidyverse framework. Patient with a renal transplantation and tacrolimus concentrations measured using HPLC methods were selected. […]
Observable: concentration at 1 h
Answer format reminder: number followed by unit.

Inquiry: Respond only with concentration at 1 h recorded for C=CC[C@@H]1/C=C(\C)C[C@H](C)C[C@H](OC)[C@H]2O[C@@](O)(C(=O)C(=O)N3CCCC[C@H]3C(=O)O[C@H](/C(C)=C/[C@@H]3CC[C@@H](O)[C@H](OC)C3)[C@H](C)[C@@H](O)CC1=O)[C@H](C)C[C@@H]2OC [tacrolimus]
Reply text: 12.3 ng/mL
